- protocol: measured solubility at different pH levels
- Assay type: physicochemical
- conditions: pH 6.8
observable: solubility (µg/mL)
Give the value in µg/mL but do not write µg/mL after it.

[ask] Name the recorded solubility for C=CC(=O)N1CCC([C@@H]2CCNc3c(C(N)=O)c(-c4ccc(Oc5ccccc5)cc4)nn32)CC1 [zanubrutinib, Zanubrutinib] .
[reply] 54

----------
- Tested on: CYP3A4
- protocol: CYP3A4 induction in human hepatocytes
- Format: in vitro ADME
- conditions: human, hepatocytes
observable: EC50 (µM)
Give the value in µM but do not write µM after it.

[ask] Name the recorded EC50 for "C=CC(=O)N1CCC([C@@H]2CCNc3c(C(N)=O)c(-c4ccc(Oc5ccccc5)cc4)nn32)CC1" .
[reply] 0.47

Reference source: paper PMC8129716
